test: Biodistribution (γ-counter); format: in vivo, BALB/C nude mice; conditions: male, BALB/C nude, mouse, tumor, iv, total radioactivity, 10 min p.i.; mean ± SD, n = 3; read-out: Tumor uptake
Peptide text beside a SMILES is read from it. * marks the point of attachment. NOTA = O=C(O)CN1CCN(CC(=O)O)CCN(CC(=O)*)CC1; AEEEA = NCCOCCOCCOCC(=O)O
property: tissue uptake at 10 min (%ID/g)
One number for each entry, in %ID/g.

Entry CC[C@H](C)[C@H](NC(=O)[C@H](CCCNC(=N)N)NC(=O)CNC(=O)[C@H](CCC(=O)O)NC(=O)[C@H](CC(N)=O)NC(=O)[C@H](Cc1ccc(O)cc1)NC(=O)[C@H](CCCNC(=N)N)NC(=O)[C@H](Cc1ccc(O)cc1)NC(=O)[C@H](Cc1c[nH]cn1)NC(=O)COCCOCCOCCNC(=O)CN1CCN(CC(=O)O)CCN(CC(=O)O)CC1)C(=O)N[C@@H](CCCNC(=N)N)C(=O)N[C@@H](CC(N)=O)C(=O)O [[^68Ga]Ga-HN11-1, metal not drawn] ({NOTA-AEEEA}-HYRYNEGRIRN-OH) — recorded tissue uptake at 10 min = 1.61
